experiment: Pharmacokinetic parameters in mice after oral administration (plasma, brain, CSF); type: in vivo, mice (strain CD-1); conditions: brain tissue vs plasma; CD-1 mice, 30 mg/kg orally
readout-type: logBB

smi: CC(F)(F)COc1ccc([C@H]2COC(=O)N2c2ccc3[nH]cnc3c2)c(F)c1
logBB: −0.9439

smi: CC(F)(F)COc1ccc([C@H]2COC(=O)N2c2ccc3[nH]cnc3c2)c(F)c1F
logBB: −1.0431

smi: CC(F)(F)CCOc1ccc([C@H]2COC(=O)N2c2ccc3[nH]cnc3c2)c(F)c1F
logBB: −0.9363

smi: CC(F)(F)COc1c(F)cc([C@H]2COC(=O)N2c2ccc3[nH]cnc3c2)cc1F
logBB: −0.9993

smi: CC(F)(F)CCOc1ccc([C@H]2COC(=O)N2c2ccc3[nH]cnc3c2)c(F)c1
logBB: −1.0428

smi: O=C1OC[C@H](c2ccc(N3CCC(F)(F)C3)cc2F)N1c1ccc2[nH]cnc2c1
logBB: −1.2913

smi: O=C1OC[C@H](c2ccc(OCCC(F)F)cc2F)N1c1ccc2[nH]cnc2c1
logBB: −1.1517

smi: O=C1OC[C@H](c2ccc(OCCC(F)F)c(F)c2F)N1c1ccc2[nH]cnc2c1
logBB: −0.9451

smi: CC(F)(F)CCOc1ccc([C@H]2COC(=O)N2c2ccc3[nH]cnc3c2)cc1F
logBB: −1.1234

----------
test: Pharmacokinetic parameters in mice after oral administration (plasma, brain, CSF); format: in vivo, mice (strain CD-1); conditions: brain tissue vs plasma; CD-1 mice, 30 mg/kg orally
readout-type: logBB

smi: O=C1OC[C@H](c2ccc(N3CCC(F)(F)C3)c(F)c2F)N1c1ccc2[nH]cnc2c1
reading: −1.2208
--
smi: CC(F)(F)COc1ccc([C@H]2COC(=O)N2c2ccc3[nH]cnc3c2)cc1F
reading: −1.0928
--
smi: O=C1OC[C@H](c2ccc(OCCC(F)F)c(F)c2)N1c1ccc2[nH]cnc2c1
reading: −1.1821
--
smi: O=C1OC[C@H](c2ccc(N3CCC(F)(F)C3)c(F)c2)N1c1ccc2[nH]cnc2c1
reading: −1.208
